src = ChEMBL document CHEMBL4334464

test: Intrinsic clearance in human liver microsomes in presence of NADPH by LC/MS/MS analysis; type: ADME, Microsome; conditions: read-out: CLH
observationType: microsomal CLint (µL/min/mg)
Express the result in µL/min/mg but write the number alone.

-- ask Fill in: microsomal CLint of C/C(=N\NC(=N)N)c1cnn(-c2ccc(C#CC3CCCC3)cc2)c1C is ___
-- reply 35.8

Now look at this one.
-- ask Fill in: microsomal CLint of C/C(=N\NC1=NCCN1)c1cnn(-c2ccc(C#CC3CCCC3)cc2)c1C is ___
-- reply 42.3

###

test system: Enterococcus faecium; assay: Antibacterial activity against vancomycin-resistant Enterococcus faecium ATCC 700221 clinical isolates after 18 to 20 hrs in aerobic condition by CLSI-based broth microdilution assay; assay type: functional
Recorded MIC values for a group of molecules are listed next.
Express the result in µg/mL but write the number alone.

The following molecules have reported results that may help.
-- ask Fill in: MIC of CCCCCC#Cc1ccc(-n2ncc(/C(C)=N/NC(=N)N)c2C)cc1 is ___
-- reply 2

-- ask Fill in: MIC of C/C(=N\NC(=N)N)c1cnn(-c2ccc(C#CC3CCCCC3)cc2)c1C is ___
-- reply 1

Now look at this one.
-- ask Fill in: MIC of CCCC#Cc1ccc(-n2ncc(/C(C)=N/NC(=N)N)c2C)cc1 is ___
-- reply 4

###

Recorded MIC values for a group of molecules are listed next.
test system: Staphylococcus aureus; assay: Antibacterial activity against Methicillin-resistant Staphylococcus aureus USA700-NRS386 clinical isolates after 18 to 20 hrs in aerobic condition by CLSI protocol based broth microdilution assay; type: functional
Express the result in µg/mL but write the number alone.

The following molecules have reported results that may help.
-- ask Fill in: MIC of C/C(=N\NC(=N)N)c1cnn(-c2ccc(C#CC3CCCCC3)cc2)c1C is ___
-- reply 2

-- ask Fill in: MIC of C/C(=N\NC(=N)N)c1cnn(-c2ccc(C#Cc3ccccc3)cc2)c1C is ___
-- reply 2

-- ask Fill in: MIC of C/C(=N\NC(=N)N)c1cnn(-c2ccc(C#CC3CCCC3)cc2)c1C is ___
-- reply 1

Now look at this one.
-- ask Fill in: MIC of CCCCCC#Cc1ccc(-n2ncc(/C(C)=N/NC(=N)N)c2C)cc1 is ___
-- reply 2

###

test: Half life in human liver microsomes in absence of NADPH by LC/MS/MS analysis; assay type: ADME, Microsome
observationType: half-life (h)
Express the result in h but write the number alone.

-- ask Fill in: half-life of C/C(=N\NC1=NCCN1)c1cnn(-c2ccc(C#CC3CCCC3)cc2)c1C is ___
-- reply 20.3

Now look at this one.
-- ask Fill in: half-life of C/C(=N\NC(=N)N)c1cnn(-c2ccc(C#CC3CCCC3)cc2)c1C is ___
-- reply 8.42

###

experiment: Apparent permeability across basolateral to apical side in human Caco2 cells after 2 hrs by LC/MS/MS analysis; type: ADME, cell-based; settings: Caco-2
observationType: Papp B→A at 2 h (×10⁻⁶ cm/s)
Express the result in ×10⁻⁶ cm/s but write the number alone.

The following compounds have reported results that may help.
-- ask Fill in: Papp B→A at 2 h of C/C(=N\NC1=NCCN1)c1cnn(-c2ccc(C#CC3CCCC3)cc2)c1C is ___
-- reply 0.15

-- ask Fill in: Papp B→A at 2 h of CC(=O)C(=CN(C)C)C(C)=O is ___
-- reply 1.2

Next:
-- ask Fill in: Papp B→A at 2 h of C/C(=N\NC(=N)N)c1cnn(-c2ccc(C#CC3CCCC3)cc2)c1C is ___
-- reply 0.01

###

tested on: Escherichia coli; assay: Antimicrobial activity against Escherichia coli JW55031 harboring deltatolC mutant after 18 to 20 hrs in aerobic condition by CLSI protocol based broth microdilution assay; type: functional
observationType: MIC (µg/mL)
Express the result in µg/mL but write the number alone.

The following compounds have reported results that may help.
-- ask Fill in: MIC of C/C(=N\NC(=N)N)c1cnn(-c2ccc(C#CC3CC3)cc2)c1C is ___
-- reply 8

-- ask Fill in: MIC of C/C(=N\NC1=NCCN1)c1cnn(-c2ccc(C#CC3CCCC3)cc2)c1C is ___
-- reply 4

-- ask Fill in: MIC of CCN(CC)CC#Cc1ccc(-n2ncc(/C(C)=N/NC(=N)N)c2C)cc1 is ___
-- reply 128

Now look at this one.
-- ask Fill in: MIC of CCCC#Cc1ccc(-n2ncc(/C(C)=N/NC3=NCCN3)c2C)cc1 is ___
-- reply 16

###

assay: Stability in human liver microsomes assessed as compound remaining incubated for 45 mins in absence of NADPH by LC/MS/MS analysis; type: ADME, Microsome; details: read-out: Stability
observationType: remaining at 0.75 h (%)
Express the result in % but write the number alone.

-- ask Fill in: remaining at 0.75 h of C/C(=N\NC(=N)N)c1cnn(-c2ccc(C#CC3CCCC3)cc2)c1C is ___
-- reply 99

Next:
-- ask Fill in: remaining at 0.75 h of C/C(=N\NC1=NCCN1)c1cnn(-c2ccc(C#CC3CCCC3)cc2)c1C is ___
-- reply 97

###

assay: Stability in human liver microsomes assessed as compound remaining incubated for 45 mins in presence of NADPH by LC/MS/MS analysis; format: ADME, Microsome; settings: read-out: Stability
Recorded remaining at 0.75 h values for a group of compounds are listed next.
Form entry: enter the amount, then its unit.

-- ask Fill in: remaining at 0.75 h of C/C(=N\NC1=NCCN1)c1cnn(-c2ccc(C#CC3CCCC3)cc2)c1C is ___
-- reply 79%

Now look at this one.
-- ask Fill in: remaining at 0.75 h of C/C(=N\NC(=N)N)c1cnn(-c2ccc(C#CC3CCCC3)cc2)c1C is ___
-- reply 81%

###

Recorded MIC values for a group of molecules are listed next.
test system: Escherichia coli; experiment: Antimicrobial activity against Escherichia coli JW55031 harboring deltatolC mutant after 18 to 20 hrs in aerobic condition by CLSI protocol based broth microdilution assay; format: functional
Express the result in µg/mL but write the number alone.

-- ask Fill in: MIC of C/C(=N\NC1=NCCN1)c1cnn(-c2ccc(C#CC3CC3)cc2)c1C is ___
-- reply 32

Now look at this one.
-- ask Fill in: MIC of C/C(=N\NC(=N)N)c1cnn(-c2ccc(C#CC(C)(C)O)cc2)c1C is ___
-- reply 128

###

Recorded Papp A→B at 2 h values for a group of compounds are listed next.
experiment: Apparent permeability across apical to basolateral side in human Caco2 cells after 2 hrs by LC/MS/MS analysis; type: ADME, cell-based; settings: Caco-2

-- ask Fill in: Papp A→B at 2 h of C/C(=N\NC(=N)N)c1cnn(-c2ccc(C#CC3CCCC3)cc2)c1C is ___
-- reply 0.01 ×10⁻⁶ cm/s

Next:
-- ask Fill in: Papp A→B at 2 h of C/C(=N\NC1=NCCN1)c1cnn(-c2ccc(C#CC3CCCC3)cc2)c1C is ___
-- reply 0.1 ×10⁻⁶ cm/s

###

assay: Stability in human liver microsomes assessed as compound remaining measured immediately in presence of NADPH by LC/MS/MS analysis; type: ADME, Microsome; details: read-out: Stability
Recorded remaining at 0 min values for a group of compounds are listed next.

-- ask Fill in: remaining at 0 min of C/C(=N\NC(=N)N)c1cnn(-c2ccc(C#CC3CCCC3)cc2)c1C is ___
-- reply 100%

Now look at this one.
-- ask Fill in: remaining at 0 min of C/C(=N\NC1=NCCN1)c1cnn(-c2ccc(C#CC3CCCC3)cc2)c1C is ___
-- reply 100%

###

Recorded MIC values for a group of compounds are listed next.
tested on: Listeria monocytogenes; assay: Antibacterial activity against Listeria monocytogenes ATCC 19111 after 18 to 20 hrs in aerobic condition by CLSI-based broth microdilution assay; format: functional
Express the result in µg/mL but write the number alone.

-- ask Fill in: MIC of CCCCCC#Cc1ccc(-n2ncc(/C(C)=N/NC3=NCCN3)c2C)cc1 is ___
-- reply 2

-- ask Fill in: MIC of CCCCCC#Cc1ccc(-n2ncc(/C(C)=N/NC(=N)N)c2C)cc1 is ___
-- reply 2

-- ask Fill in: MIC of C/C(=N\NC(=N)N)c1cnn(-c2ccc(C#Cc3ccccc3)cc2)c1C is ___
-- reply 2

-- ask Fill in: MIC of C/C(=N\NC1=NCCN1)c1cnn(-c2ccc(C#CC3CCCC3)cc2)c1C is ___
-- reply 4

-- ask Fill in: MIC of C/C(=N\NC(=N)N)c1cnn(-c2ccc(C#CC3CCCC3)cc2)c1C is ___
-- reply 0.5

Next:
-- ask Fill in: MIC of CCCC#Cc1ccc(-n2ncc(/C(C)=N/NC(=N)N)c2C)cc1 is ___
-- reply 4

-- ask Fill in: MIC of C/C(=N\NC(=N)N)c1cnn(-c2ccc(C#CC3(O)CCCCC3)cc2)c1C is ___
-- reply 2
